# Target Or System: T1, recombinant human regenerating islet-derived protein 1α (REG1A) (human, UniProt P05451 23-166, limits assumed)
# T1 construct: also called recombinant human REG1A; recombinant REG1A
# T1 sequence (looked up): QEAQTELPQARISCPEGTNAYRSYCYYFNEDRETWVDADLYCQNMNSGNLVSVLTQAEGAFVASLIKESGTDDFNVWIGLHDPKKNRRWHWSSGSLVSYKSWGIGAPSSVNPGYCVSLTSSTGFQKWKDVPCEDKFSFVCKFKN
# Method Summary: sandwich ELISA; capture 21B11D2; REG1A 33.33 ng/mL
Outcome Measure: OD value (OD)
Number only, in OD; omit the unit.

Ask | Query (binder): antibody 12F12A10 (antibody, V domains shown, Mouse monoclonal from hybridoma, stated mouse IgG1/Kappa; also called 12F12A10-biotin; Antibody 2) VH: QVQLQQSATELARPGASVKMSCKASGYTFTSYMMHWVKQRPGQGLEWIGYINPSSGYTDYNQKFKDKTTLTADKSSSTAYMQLSSLTSEDSAVYYCARYRYPHYFDYWGQGTTLTVSS VL: QIVLTQSPAIMSASPGEKVTMTCSASSSVSYIHWYQQKSGTSPKRWIYDTSKLASGVPARFSGSGSGTSYSLTISSMEAEDAAIYYCQQWSSNPPTFGAGTKLELKR ; field requested: OD value
Reply | 4.59

Ask | Item: antibody 4H8F1 (antibody, V domains shown, Mouse monoclonal from hybridoma, stated mouse IgG1/Kappa; also called 4H8F1-biotin; Antibody 1) VH: QVTLKESGPGILQPSQTLSLTCSFSGFSLSTSGMSVGWIRQPSGKGLEWLAHIWWNDDKFYNPALKSRLTISKDTSKNQIFLKIASVVTADSATYYCARIEEGWFAYWGQGTLVTVST VL: SIVMTQTPKFLLVSVGDRVTITCKASQTMSNDVAWYQQKPGQSPKLLIYYASNRYTGVPDRFTGSGYGTDFTFTISTVQAEDLAVYFCQQDYSSPLTFGAGTKLELKR
Reply | 0.078

Ask | Item: antibody 11D11B11 (antibody, mouse IgG2a, kappa, V domains shown, Mouse monoclonal from hybridoma, stated mouse IgG1/Kappa; Used unlabelled as capture and biotin-labelled as detection antibody; also called 11D11B11-biotin) VH: DVKLVESGGGLVKPGGSLKLSCAASGFTFSSFSMSWFRQTPDKRLEWVATISSGGSSTYYPDSVKGRFTISRDNAKNTLYLQMTSLKSEDTAIFYCRGGYYGNYDPLDYWGQGTSVTVSA VL: DIVMIQSQKFMSTSVGDRVSITCTASHNVDSNVAWYQQKPGQSPQALIYSASYRYSGVPDRFTGSGSGTDFTLTINNVQSEDLAEYFCQQYNSYPLTFGGGTRLEIKR
Reply | 0.077

Ask | Item: antibody 21B11D2 (antibody, mouse IgG2b, kappa, V domains shown, Mouse monoclonal from hybridoma, stated mouse IgG1/Kappa; Used unlabelled as capture and biotin-labelled as detection antibody; also called 21B11D2-biotin) VH: QAQLQQSGAELVRPGASVTLSCKASGYIFTDYEMHWVKQTPVHGLEWIGAIDPETGGTAYNQKFKGKARLTADKSSSTAYMELRSLTSEDSAVYYCTIYYTNHFDYWGQGTTLTVSS VL: DVVMTQTPLSLPVSLGDQASISCRSSQSLVYSNGDTYLYWYLQKPGQSPKLLIYKVSNRFSGVPDRFSGSGSGTDFTLKISRVEAEDLGVYFCSQSTHVPLTFGAGTKLELKR
Reply | 0.071
